- systemName: KCNT1 (KNa1.1, Slack) (Homo sapiens, UniProt Q5JUK3)
- Sequence (Q5JUK3 whole entry): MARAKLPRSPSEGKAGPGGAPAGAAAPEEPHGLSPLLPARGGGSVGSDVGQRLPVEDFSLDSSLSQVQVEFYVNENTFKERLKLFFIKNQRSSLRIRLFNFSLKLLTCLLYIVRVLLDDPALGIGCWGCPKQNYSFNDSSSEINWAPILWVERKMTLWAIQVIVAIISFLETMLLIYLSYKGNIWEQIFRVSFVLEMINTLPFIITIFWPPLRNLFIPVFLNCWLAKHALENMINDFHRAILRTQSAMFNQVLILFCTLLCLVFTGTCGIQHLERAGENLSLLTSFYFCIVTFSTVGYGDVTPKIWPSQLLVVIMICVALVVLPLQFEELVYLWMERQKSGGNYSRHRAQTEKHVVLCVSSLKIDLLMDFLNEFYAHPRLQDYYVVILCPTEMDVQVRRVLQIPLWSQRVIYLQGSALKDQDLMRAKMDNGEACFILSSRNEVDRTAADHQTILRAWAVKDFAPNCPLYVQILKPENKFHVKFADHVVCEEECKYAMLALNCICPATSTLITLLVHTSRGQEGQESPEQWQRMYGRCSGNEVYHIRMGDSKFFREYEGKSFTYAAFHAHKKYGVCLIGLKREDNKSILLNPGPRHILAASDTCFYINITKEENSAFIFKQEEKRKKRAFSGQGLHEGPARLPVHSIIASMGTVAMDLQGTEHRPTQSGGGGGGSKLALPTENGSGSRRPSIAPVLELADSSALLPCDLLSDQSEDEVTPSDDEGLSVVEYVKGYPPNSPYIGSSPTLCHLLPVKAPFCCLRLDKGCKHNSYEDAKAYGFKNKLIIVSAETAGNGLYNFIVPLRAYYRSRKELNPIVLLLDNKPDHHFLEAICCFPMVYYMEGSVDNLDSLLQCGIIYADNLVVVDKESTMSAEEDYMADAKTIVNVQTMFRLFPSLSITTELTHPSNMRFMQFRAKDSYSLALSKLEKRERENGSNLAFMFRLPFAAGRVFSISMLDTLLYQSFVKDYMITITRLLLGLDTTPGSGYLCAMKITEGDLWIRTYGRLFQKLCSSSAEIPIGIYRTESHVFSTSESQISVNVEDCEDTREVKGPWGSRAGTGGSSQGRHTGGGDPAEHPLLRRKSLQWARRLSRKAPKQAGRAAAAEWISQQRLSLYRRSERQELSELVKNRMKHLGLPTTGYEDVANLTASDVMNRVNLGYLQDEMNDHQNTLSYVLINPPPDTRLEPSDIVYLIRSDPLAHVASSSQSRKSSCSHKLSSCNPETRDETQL
- protocolNotes: KCNT1 patch clamp assay (SyncroPatch 384PE automated patch clamp)
- experimentalConditions: tetracycline inducible HEK-TREX cell line; perforated patch; step from −80 mV to 0 mV; room temperature; read-out: KCNT1-WT IC50
pIC50: −log10 of the molar value.

| compound | systemName | pIC50 |
| --- | --- | --- |
| CC[C@H](NC(=O)c1cc(C(F)(F)F)nn1C)c1nc(-c2ccnc(C3CC3)c2)no1 | KCNT1 (KNa1.1, Slack) (Homo sapiens, UniProt Q5JUK3) | ≥ 6.00 |
| CC[C@H](NC(=O)c1ccnn1Cc1ccccc1)c1nc(-c2ccnc(C)c2)no1 | KCNT1 (KNa1.1, Slack) (Homo sapiens, UniProt Q5JUK3) | ≥ 6.00 |
| Cc1cccc(-c2noc(C(C)NC(=O)c3cc(C)nn3C(C)C)n2)c1 (centres unmarked) | KCNT1 (KNa1.1, Slack) (Homo sapiens, UniProt Q5JUK3) | ≥ 6.00 |
| Cn1nc(C2CC2)cc1C(=O)N[C@@H](c1nc(-c2cccc(F)c2)no1)C1CC1 (single isomer, unassigned) | KCNT1 (KNa1.1, Slack) (Homo sapiens, UniProt Q5JUK3) | ≥ 6.00 |
| CC(C)[C@H](NC(=O)c1cc(C2CC2)nn1C)c1nc(-c2cccc(F)c2)no1 | KCNT1 (KNa1.1, Slack) (Homo sapiens, UniProt Q5JUK3) | ≥ 6.00 |
| CC[C@H](NC(=O)c1cc(C)nn1-c1cccnc1)c1nc(-c2ccnc(C)c2)no1 | KCNT1 (KNa1.1, Slack) (Homo sapiens, UniProt Q5JUK3) | 4.70 to 6.00 |
| Cn1nc(C(F)(F)F)cc1C(=O)NC(CC(N)=O)c1nc(-c2cccc(F)c2)no1 (single isomer, unassigned) [Compound 129] | KCNT1 (KNa1.1, Slack) (Homo sapiens, UniProt Q5JUK3) | ≤ 4.70 |
| Cc1nn(C(C)C)cc1C(=O)N[C@@H](C)c1nc(-c2cccc(F)c2)no1 [Compound 153] | KCNT1 (KNa1.1, Slack) (Homo sapiens, UniProt Q5JUK3) | ≥ 6.00 |
| CNC(=O)C[C@H](NC(=O)c1cc(C(F)(F)F)nn1C)c1nc(-c2cccc(F)c2)no1 (single isomer, unassigned) | KCNT1 (KNa1.1, Slack) (Homo sapiens, UniProt Q5JUK3) | ≤ 4.70 |
| COC1(c2cc(-c3noc([C@H](C)NC(=O)OC(C)(C)C)n3)ccn2)CC1 | KCNT1 (KNa1.1, Slack) (Homo sapiens, UniProt Q5JUK3) | 4.70 to 6.00 |
| CN(C)C(=O)C[C@@H](NC(=O)c1cc(C(F)(F)F)nn1C)c1nc(-c2cccc(F)c2)no1 (single isomer, unassigned) | KCNT1 (KNa1.1, Slack) (Homo sapiens, UniProt Q5JUK3) | 4.70 to 6.00 |

The origin of these recorded values is patent US20220259193A1.
